Quick list: pKi per entry.
Target: Adenosine receptor A1 (Rattus norvegicus, UniProt P25099)
Sequence (P25099 whole entry): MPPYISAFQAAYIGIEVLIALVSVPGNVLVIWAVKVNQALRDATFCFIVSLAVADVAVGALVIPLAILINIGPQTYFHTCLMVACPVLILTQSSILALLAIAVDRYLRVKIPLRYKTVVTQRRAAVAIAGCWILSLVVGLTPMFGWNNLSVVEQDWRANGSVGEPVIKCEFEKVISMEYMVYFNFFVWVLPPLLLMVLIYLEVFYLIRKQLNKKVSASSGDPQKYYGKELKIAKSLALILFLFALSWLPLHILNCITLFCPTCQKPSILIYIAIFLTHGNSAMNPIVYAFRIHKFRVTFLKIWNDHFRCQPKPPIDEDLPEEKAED
The read-out pKi is expressed as -log10 of concentration in moles per litre.

The following molecules have reported results that may help.
structure-smiles-string	data-value
O[C@@H]1[C@H](O)[C@@H]2C[C@@H]2[C@H]1n1cnc2c(NCc3ccccc3F)nc(Cl)nc21	8.22
O[C@@H]1[C@H](O)[C@@H]2C[C@@H]2[C@H]1n1cnc2c(N[C@H]3C[C@H]4CC[C@H]3C4)nc(Cl)nc21	9.47
O[C@@H]1[C@H](O)[C@@H]2C[C@@H]2[C@H]1n1cnc2c(NC3CCC3)nc(Cl)nc21	9.15
CC(C)Nc1nc(Cl)nc2c1ncn2[C@H]1[C@H](O)[C@H](O)[C@@H]2C[C@@H]21	8.72
O[C@@H]1[C@H](O)[C@@H]2C[C@@H]2[C@H]1n1cnc2c(NC(C3CC3)C3CC3)nc(Cl)nc21	9.10

Name the recorded pKi for O[C@@H]1[C@H](O)[C@@H]2C[C@@H]2[C@H]1n1cnc2c(N[C@@H]3C[C@H]4CC[C@H]3C4)nc(Cl)nc21 .
9.15
